- Target Of Assay: recombinant human AKR1C3 (Aldo-keto reductase family 1 member C3) (Homo sapiens)
- Construct: GST (cleaved yes)
- Assay Method Text: In Vitro Assay 1: AKR1C3-inhibitory activity (Coumberone to Coumberol fluorescence assay)
- Run Conditions: recombinant enzyme, Coumberone 0.3 μM, NADPH 10 μM, 15 min pre-incubation, 4-parameter fit; average or median values
Sorting guide: entries reporting IC50 beneath 100 nM go in the condition met pile, the rest go in the condition not met pile.

Examples from the recorded data:
[
  {
    "Substance Smiles": "O=C(c1cnn[nH]1)N1C[C@@H]2[C@H](C1)[C@H]1CC[C@@H]2N1S(=O)(=O)c1cccc2c1OCC2",
    "Class": "condition met"
  },
  {
    "Substance Smiles": "O=C(c1cnn[nH]1)N1C[C@@H]2[C@H](C1)[C@H]1CC[C@@H]2N1S(=O)(=O)c1cc(F)c(F)cc1F",
    "Class": "condition met"
  },
  {
    "Substance Smiles": "Cc1cc(C)cc(S(=O)(=O)N2[C@@H]3CC[C@H]2[C@H]2CN(C(=O)c4cnn[nH]4)C[C@H]23)c1",
    "Class": "condition met"
  },
  {
    "Substance Smiles": "O=C(c1cnn[nH]1)N1C[C@@H]2[C@H](C1)[C@H]1CC[C@@H]2N1S(=O)(=O)c1cccc2nsnc12",
    "Class": "condition not met"
  },
  {
    "Substance Smiles": "O=C(c1c[nH]nn1)N1C[C@@H]2[C@H](C1)[C@@H]1CC[C@H]2N1S(=O)(=O)c1cc(F)ccc1F",
    "Class": "condition met"
  }
]

stdin: In the record for Cc1cccc(Cl)c1S(=O)(=O)N1[C@@H]2CC[C@H]1[C@@H]1CN(C(=O)c3cnn[nH]3)C[C@@H]12 , is IC50 less than 100 nM?
stdout: condition met

stdin: In the record for O=C(c1cnn[nH]1)N1C[C@@H]2[C@H](C1)[C@H]1CC[C@@H]2N1S(=O)(=O)c1ccc(Br)cc1 , is IC50 less than 100 nM?
stdout: condition not met

stdin: In the record for N#Cc1cc(S(=O)(=O)N2[C@@H]3CC[C@H]2[C@@H]2CN(C(=O)c4cnn[nH]4)C[C@@H]23)ccc1F , is IC50 less than 100 nM?
stdout: condition not met

stdin: In the record for Cc1cc(C)c(S(=O)(=O)N2[C@@H]3CC[C@H]2[C@@H]2CN(C(=O)c4cnn[nH]4)C[C@@H]23)c(C)c1 , is IC50 less than 100 nM?
stdout: condition met

====

- Target Of Assay: recombinant human AKR1C3 (Aldo-keto reductase family 1 member C3) (Homo sapiens, UniProt P42330)
- Construct: GST (cleaved yes)
- Sequence (P42330 whole entry): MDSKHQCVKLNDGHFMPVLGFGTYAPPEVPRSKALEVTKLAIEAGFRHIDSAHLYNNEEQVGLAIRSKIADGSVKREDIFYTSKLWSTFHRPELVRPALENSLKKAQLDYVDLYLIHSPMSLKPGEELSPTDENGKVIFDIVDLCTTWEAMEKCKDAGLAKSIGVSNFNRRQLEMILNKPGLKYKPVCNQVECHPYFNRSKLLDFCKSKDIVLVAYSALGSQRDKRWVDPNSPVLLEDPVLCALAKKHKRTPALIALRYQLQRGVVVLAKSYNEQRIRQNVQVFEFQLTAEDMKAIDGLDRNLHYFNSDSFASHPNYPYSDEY
- Assay Method Text: In Vitro Assay 1: AKR1C3-inhibitory activity (Coumberone to Coumberol fluorescence assay)
- Run Conditions: recombinant enzyme, Coumberone 0.3 μM, NADPH 10 μM, 15 min pre-incubation, 4-parameter fit; average or median values
Reported Property: pIC50
By convention, pIC50 is the negative base-10 log of a molar concentration.

Answered examples (5):
[
  {
    "Substance Smiles": "O=C(c1cnn[nH]1)N1C[C@@H]2[C@H](C1)[C@@H]1CC[C@H]2N1S(=O)(=O)c1ccccc1C(F)(F)F",
    "pIC50": 8.70
  },
  {
    "Substance Smiles": "O=C(c1c[nH]nn1)N1C[C@@H]2[C@H](C1)[C@@H]1CC[C@H]2N1S(=O)(=O)c1cccc(F)c1",
    "pIC50": 7.59
  },
  {
    "Substance Smiles": "CCc1ccc(S(=O)(=O)N2[C@@H]3CC[C@H]2[C@@H]2CN(C(=O)c4cnn[nH]4)C[C@@H]23)cc1",
    "pIC50": 6.71
  },
  {
    "Substance Smiles": "O=C(c1c[nH]nn1)N1C[C@@H]2[C@H](C1)[C@@H]1CC[C@H]2N1S(=O)(=O)c1ccccc1Cl",
    "pIC50": 8.15
  },
  {
    "Substance Smiles": "O=C(c1c[nH]nn1)N1C[C@@H]2[C@H](C1)[C@@H]1CC[C@H]2N1S(=O)(=O)c1cc(Cl)cc(Cl)c1",
    "pIC50": 7.36
  }
]

stdin: Which pIC50 is reported for this compound? N#Cc1ccc(S(=O)(=O)N2[C@@H]3CC[C@H]2[C@@H]2CN(C(=O)c4cnn[nH]4)C[C@@H]23)cc1
stdout: 6.07

stdin: Which pIC50 is reported for this compound? O=C(c1cnn[nH]1)N1C[C@@H]2[C@H](C1)[C@H]1CC[C@@H]2N1S(=O)(=O)c1ccc2c(c1)OCO2
stdout: 6.57
